Each record here notes measured shrunken log2 fold change.
# Tested on: Escherichia coli TOP10;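 further: peptides expressed intracellularly from a pBAD plasmid library in pooled LB shake-flask culture, induced with 0.3% L-arabinose, DNA abundance read by NGS, three biological replicates, DESeq2 with apeglm shrinkage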
# assayText: shrunken log2 fold change of peptide-encoding DNA abundance (4.5 h post-induction vs induction); higher = less antimicrobial activity (less host growth inhibition)
# conditionParameters: time post-induction: 4.5 h; library: site-saturation at positions 5, 18, 19, 20
Could you respond with only the numeric value?

Example results:
| sequenceInput | assayTarget | shrunken log2 fold change |
| --- | --- | --- |
| RRIRFRPPRLPRPRPRPHFRPRP | Escherichia coli TOP10 | -0.634 |
| RRIRQRPPRLPRPRPRPRKTPRP | Escherichia coli TOP10 | 0.00489 |
| RRIRQRPPRLPRPRPRPWCFPRP | Escherichia coli TOP10 | -0.263 |

State its shrunken log2 fold change: `RRIRFRPPRLPRPRPRPKIAPRP`
-0.0112

Write down shrunken log2 fold change measured for item `RRIRGRPPRLPRPRPRPPALPRP`
0.881

Output measured shrunken log2 fold change for this item: `RRIRKRPPRLPRPRPRPSCHPRP`
-0.132

For the sequence `RRIRYRPPRLPRPRPRPCRIPRP` , give its measured shrunken log2 fold change value.
-0.0823

Fill in reported shrunken log2 fold change for this entry: `RRIRPRPPRLPRPRPRPCVEPRP`
0.021
